The values you see were collected from patent US12234230B2.

target-entity: Cbl-b (Homo sapiens (Human))
test-name: Cbl-b displacement assay (Cbl-b inhibition assay), Biological Example 8
Format: binding
experimental-conditions: 0.125 nM Cbl-b final concentration (Low); Table 8-1
Record form. Attribute: IC50. Fill in for each entry.

Test item `C[C@H]1CCCN(Cc2cc3c(c(C(F)(F)F)c2)CN(c2cccc([C@]4(c5nncn5C)C[C@@H](C#N)C4)c2)C3=O)C1` ; Cbl-b (Homo sapiens (Human)); reported IC50 was 1 to 5 nM

Observed IC50, Cbl-b (Homo sapiens (Human)), `C[C@H]1CCCN(Cc2cc3c(c(C(F)(F)F)c2)CN(c2cccc([C@H](c4nncn4C)C4CCC4)c2)C3=O)C1` : < 1 nM

Record `C[C@H]1CCCN(Cc2cc3c(c(C(F)(F)F)c2)CN(c2cccc([C@]4(c5nncn5C)C[C@@H](C)C4)c2)C3=O)C1` has Cbl-b (Homo sapiens (Human)) IC50 equal to < 1 nM

Result for `C[C@H]1CCCN(Cc2cc3c(c(C(F)(F)F)c2)CN(c2cccc(C4(c5nncn5C)CC5(CC5)C4)c2)C3=O)C1` , tested on Cbl-b (Homo sapiens (Human)), IC50: < 1 nM

###

For each record, write down the corresponding pIC50.
target-entity: Cbl-b (Homo sapiens (Human))
test-name: Cbl-b displacement assay (Cbl-b inhibition assay), Biological Example 1
Assay type: binding
experimental-conditions: 0.125 nM Cbl-b final concentration (Low); read-out: Cbl-b activity IC50 (Low)
pIC50: −log10 of the molar value.

C[C@@H]1CN(Cc2cc3c(c(C(F)(F)F)c2)CN(c2cccc([C@]4(c5nncn5C)C[C@@H](CC#N)C4)c2)C3=O)CCC1(F)F [Compound 49] has a reported pIC50 of > 8.30

Lab note: measured pIC50 of C[C@@H]1CN(Cc2cc3c(c(C(F)(F)F)c2)CN(c2cccc([C@H](c4nncn4C)C4CCC4)c2)C3=O)CCO1 [Compound 17] was > 8.30

# compound CC(c1cc2c(c(C(F)(F)F)c1)CN(c1cccc([C@@H](c3nncn3C)C3CCC3)c1)C2=O)N1CCC(F)(F)[C@H](C)C1 (stereo partly drawn) [Compound 14] ; its pIC50 = 7.00 to 7.70

Record CO[C@H]1C[C@@](c2cccc(N3Cc4c(cc(CN5CCC(F)(F)[C@H](C)C5)cc4C(F)(F)F)C3=O)c2)(c2nncn2C)C1 [Compound 33] , field pIC50: 7.70 to 8.30

Lookup result for C[C@H]1CCCN(Cc2cc3c(c(C(F)(F)F)c2)CN(c2cccc([C@]4(c5nncn5C)C[C@@H](CC#N)C4)c2)C3=O)C1 [Compound 48] ; measured pIC50: > 8.30

Field pIC50 (entry C[C@@H]1CN(Cc2cc3c(c(C(F)(F)F)c2)CN(c2cccc([C@]4(c5nncn5C)C[C@@H](C)C4)c2)C3=O)CCC1(F)F [Compound 19] ) reads 7.00 to 7.70

###

target-entity: Cbl-b (Homo sapiens (Human), UniProt Q13191)
Sequence (Q13191 36-427): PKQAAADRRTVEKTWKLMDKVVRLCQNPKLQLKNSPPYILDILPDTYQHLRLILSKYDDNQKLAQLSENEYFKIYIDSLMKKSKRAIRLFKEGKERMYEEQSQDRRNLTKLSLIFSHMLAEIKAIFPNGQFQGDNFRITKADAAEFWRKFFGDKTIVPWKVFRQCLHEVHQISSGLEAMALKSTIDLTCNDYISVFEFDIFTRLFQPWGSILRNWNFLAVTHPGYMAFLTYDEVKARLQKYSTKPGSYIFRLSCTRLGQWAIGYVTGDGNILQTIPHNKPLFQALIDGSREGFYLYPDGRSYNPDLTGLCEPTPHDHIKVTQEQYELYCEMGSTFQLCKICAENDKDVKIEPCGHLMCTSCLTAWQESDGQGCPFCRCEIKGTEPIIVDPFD
test-name: Cbl-b displacement assay (Cbl-b inhibition assay), Biological Example 11
Type: binding
experimental-conditions: 0.125 nM Cbl-b final concentration (Low); Table 11-1
I'd be grateful if you could share measured IC50 for these entries.

Value of IC50 reported for the compound `C[C@H]1CCCN(Cc2cc3c(c(C(F)(F)F)c2)CN(c2cccc([C@]4(c5nncn5C)C[C@@H](C#N)C4)c2)C3=O)C1` is 1 to 5 nM

The compound listed as `C[C@H]1CCCN(Cc2cc3c(c(C(F)(F)F)c2)CN(c2cccc([C@H](c4nncn4C)C4CCC4)c2)C3=O)C1` has a reported IC50 of < 1 nM

Kindly note the recorded IC50 for `C[C@H]1CCCN(Cc2cc3c(c(C(F)(F)F)c2)CN(c2cccc([C@]4(c5nncn5C)C[C@@H](C)C4)c2)C3=O)C1` , which is < 1 nM

Measured IC50 of `C[C@H]1CCCN(Cc2cc3c(c(C(F)(F)F)c2)CN(c2cccc(C4(c5nncn5C)CC5(CC5)C4)c2)C3=O)C1` : < 1 nM
